- TEST_DETAILS: Permeability of the compound across blood brain barrier measured after 18 hrs by parallel artificial membrane permeation assay
- Assay type: ADME
- ASSAY_SETUP: PAMPA, read-out: permeability
RECORDED_ENDPOINT: Papp at 18 h (×10⁻⁶ cm/s)

CCN(CC)C[C@@H](O)COc1ccc(/C=C/c2cc(OC)cc(OC)c2)cc1: 8.12

###

- SYSTEM: Beta-secretase 1 (Homo sapiens, UniProt P56817)
- Sequence (P56817 whole entry): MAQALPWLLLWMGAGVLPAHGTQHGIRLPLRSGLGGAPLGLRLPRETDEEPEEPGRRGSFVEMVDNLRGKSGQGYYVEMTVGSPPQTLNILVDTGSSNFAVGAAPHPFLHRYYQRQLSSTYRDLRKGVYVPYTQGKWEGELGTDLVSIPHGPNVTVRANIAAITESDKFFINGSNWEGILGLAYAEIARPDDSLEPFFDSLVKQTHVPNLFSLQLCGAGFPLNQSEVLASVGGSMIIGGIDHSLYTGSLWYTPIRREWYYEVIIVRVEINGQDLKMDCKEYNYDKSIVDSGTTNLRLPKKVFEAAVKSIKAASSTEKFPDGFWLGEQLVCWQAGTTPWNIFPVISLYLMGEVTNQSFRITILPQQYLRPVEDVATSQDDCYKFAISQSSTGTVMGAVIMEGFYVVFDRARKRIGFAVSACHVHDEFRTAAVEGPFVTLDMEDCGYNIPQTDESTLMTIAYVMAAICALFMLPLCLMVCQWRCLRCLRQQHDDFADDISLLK
- TEST_DETAILS: Inhibition of human recombinant BACE-1 expressed in baculovirus using Rh-EVNLDAEFK-Quencher as substrate incubated for 60 mins by measuring increase in fluorescence intensity using fluorescence microplate reader
RECORDED_ENDPOINT: IC50 (µM)

COc1cc(/C=C/c2cc(=O)oc3c2ccc2oc(-c4cc(OC)cc(OC)c4)cc23)cc(OC)c1: 15.3

Reference source for all entries: ChEMBL document CHEMBL5126540
